- Tested on: U2OS
- Assay Protocol: Multiplex assay against U2OS
- Format: toxicity, cell-based
- Condition Info: human, 12 h, 1 µM, compound concentration 1 uM, replicate 1
Reported Population Pyknosed Nuclei (%) values are given for each entry in this list.
# output: bare number, implied unit %

In the examples that follow, each entry is paired with its recorded Population Pyknosed Nuclei (%).
CCNc1cc(N[C@H]2CC[C@H](O)CC2)nc(Nc2ccc3c(ccn3Cc3ccccc3)c2)n1 | 13
CCn1cc(-c2ccnc3[nH]c(-c4cccc(CN(C)C)c4)cc23)c(-c2ccc(NC(=O)N(C)C)cc2)n1 [GSK-1070916] | 3
COC(=N)c1nc2ccc3ncnc(Nc4ccc(OC)cc4F)c3c2s1 | 12
CN1CCC(=C2c3ccccc3CC(=O)c3sccc32)CC1.O=C(O)/C=C/C(=O)O [KETOTIFEN FUMARATE] | 13
Cl.O=c1c2cccn2c2ccccc2n1CCCN1CCC(c2ccc(Cl)cc2)CC1 | 14

// query Population Pyknosed Nuclei (%) value for entry S=C(NCCCc1c[nH]cn1)NCCCN(Cc1ccc(Cl)c(Cl)c1)c1ccc(Br)cn1 13

src = ChEMBL document CHEMBL4689842
